STUDY SYSTEM: T1, human ferroportin 1 (human, UniProt Q9NP59 1-571)
T1 construct: also called human FPN1; FPN1
T1 sequence: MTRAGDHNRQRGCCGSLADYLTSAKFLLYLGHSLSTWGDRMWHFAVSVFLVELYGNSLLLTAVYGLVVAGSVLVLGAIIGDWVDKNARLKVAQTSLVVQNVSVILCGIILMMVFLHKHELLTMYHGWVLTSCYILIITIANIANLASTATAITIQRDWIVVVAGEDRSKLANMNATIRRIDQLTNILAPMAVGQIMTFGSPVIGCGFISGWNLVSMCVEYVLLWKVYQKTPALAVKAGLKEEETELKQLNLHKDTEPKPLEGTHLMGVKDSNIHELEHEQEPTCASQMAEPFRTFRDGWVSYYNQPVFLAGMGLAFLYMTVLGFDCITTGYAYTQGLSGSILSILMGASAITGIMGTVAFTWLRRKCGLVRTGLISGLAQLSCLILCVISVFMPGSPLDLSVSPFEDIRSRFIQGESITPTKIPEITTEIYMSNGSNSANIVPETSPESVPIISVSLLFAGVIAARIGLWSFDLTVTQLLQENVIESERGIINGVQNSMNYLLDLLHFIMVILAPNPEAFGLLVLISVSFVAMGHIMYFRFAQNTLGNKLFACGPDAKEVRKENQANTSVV
ASSAY EXPLANATION: inhibition of binding of 30 nM biotinylated hepcidin to FPN/293 cells, ELISA of lysate; antibody at 7.8 nM; mean
Kindly supply the reported % Inhibition values for the records listed here.
One number for each entry, in %.

// solved cases for % Inhibition follow
BINDER	MEASURE NAME	ASSAY RESULT
Mab L2.2-4 (antibody, human IgG4 S228P, kappa, F234A L235A, V domains shown) VH: QVQLVQSGAEVKKPGSSVKVSCKASGYAFTSFLIEWVRQAPGQGLEWMGTSNPRTGGRKYKEKFRGRVTITADKSTSTAYMELSSLRSEDTAVYYCAREFFDYWGQGTTVTVSS VL: DIQMTQSPSSLSASVGDRVTITCRASKSISKYTAWYQQKPGKAPKLLIYAGSKLRSGVPSRFSGSGSGTDFTLTISSLQPEDFATYYCQQHNEYPYTFGGGTKVEIKR	% Inhibition	-0.1
Mab Combi11 (antibody, human IgG4 S228P, kappa, F234A L235A, V domains shown) VH: QVQLVQSGAEVKKPGSSVKVSCKASGYAFTSFLIEWVRQAPGQGLEWMGTSNPRTGRTKYKSKFRGRVTITADKSTSTAYMELSSLRSEDTAVYYCAREFFDYWGQGTTVTVSS VL: DIQMTQSPSSLSASVGDRVTITCRASKSISKYTAWYQQKPGKAPKLLIYAGSKRHWGVPSRFSGSGSGTDFTLTISSLQPEDFATYYCQQHNEYPYTFGGGTKVEIKR	% Inhibition	18.7
Mab 4A10-3 (antibody, human IgG4 S228P, kappa, F234A L235A, V domains shown) VH: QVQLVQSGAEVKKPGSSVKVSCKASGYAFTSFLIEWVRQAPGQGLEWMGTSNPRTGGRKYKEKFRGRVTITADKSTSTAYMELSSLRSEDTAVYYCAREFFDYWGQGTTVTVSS VL: DIQMTQSPSSLSASVGDRVTITCRASKSISKYTAWYQQKPGKAPKLLIYAGSKLHWGVPSRFSGSGSGTDFTLTISSLQPEDFATYYCQQHNEYPYTFGGGTKVEIKR	% Inhibition	5.4

## Task Entry Mab 3D8 (antibody, human IgG4 S228P, kappa, F234A L235A, V domains shown, Humanized form of mouse 1G9 with human heavy chain framework VH1-69 and light chain framework O2; also called human 3D8) VH: QVQLVQSGAEVKKPGSSVKVSCKASGYAFTSFLIEWVRQAPGQGLEWMGTSNPRTGGTKYKEKFRGRVTITADKSTSTAYMELSSLRSEDTAVYYCAREFFDYWGQGTTVTVSS VL: DIQMTQSPSSLSASVGDRVTITCRASKSISKYTAWYQQKPGKAPKLLIYAGSKLHSGVPSRFSGSGSGTDFTLTISSLQPEDFATYYCQQHNEYPYTFGGGTKVEIKR : reported % Inhibition = ?
## Result -2.8
